Where do these numbers come from? They come from patent US8952024B2.

- Tested on: lambsquarters (Chenopodium album)
- Method: Test B pre-/postemergence plant response
- Assay type: in vivo
- Reported conditions: 31 g ai/ha, postemergence; scale 0 to 100, 0 is no effect, 100 is complete control
Measured endpoint: Plant response rating, Lambsquarters
Form field (numeric): enter value without unit.

Compound	Measured endpoint	Recorded result
O=C1CCCC(O)=C1C(=O)c1cnc(-c2ccsc2)n(C2CCCCC2)c1=O [Compound 99]	Plant response rating, Lambsquarters	98
O=C1CCCC(O)=C1C(=O)c1cnc(-c2cccc(Br)c2)n(-c2ccccc2)c1=O [Compound 69]	Plant response rating, Lambsquarters	100
CCCc1ncc(C(=O)C2=C(O)CCCC2=O)c(=O)n1-c1cccc(C)c1 [Compound 79]	Plant response rating, Lambsquarters	95

## Task Record request: Plant response rating, Lambsquarters value, item CCn1c(-c2ccccc2)ncc(C(=O)C2=C(O)CCCC2=O)c1=O [Compound 49]
## Result 70

## Task Item: CCCCc1ncc(C(=O)C2=C(O)CCCC2=O)c(=O)n1-c1ccccc1C [Compound 62]
## Result 85

* * *

Reported Lambsquarters plant response rating values for the following molecules.
- Tested on: lambsquarters (Chenopodium album)
- Method: Test B pre-/postemergence plant response
- Format: in vivo
- Reported conditions: Postemergence, 250 g ai/ha; scale 0 to 100

## Task Record request: Lambsquarters plant response rating value, item `O=C1CCCC(O)=C1C(=O)c1cnc(-c2ccccc2)n(-c2ccccc2Br)c1=O`
## Result 100

## Task Item: `Cc1ccc(-n2c(-c3cccc(Cl)c3)ncc(C(=O)C3=C(O)CCCC3=O)c2=O)cc1`
## Result 100

## Task Item: `Cc1c(F)cccc1-n1c(-c2ccccc2)ncc(C(=O)C2=C(O)CCCC2=O)c1=O`
## Result 100

## Task Item: `O=C1CCCC([O-])=C1C(=O)c1cnc(-c2ccccc2)n(-c2ccccc2)c1=O.[K+]`
## Result 85

## Task Item: `CCn1c(-c2ccccc2)ncc(C(=O)C2=C(O)CCCC2=O)c1=O`
## Result 98

## Task Item: `O=C1CCCC(O)=C1C(=O)c1cnc(-c2ccccc2)n(-c2ccc(F)cc2)c1=O`
## Result 100

## Task Item: `O=C1CCCC(O)=C1C(=O)c1cnc(-c2cccc(Cl)c2)n(-c2ccccc2)c1=O`
## Result 100

* * *

Reported Plant response rating, Lambsquarters values for the following molecules.
- Test system: lambsquarters (Chenopodium album)
- Method: Test B pre-/postemergence plant response
- Format: in vivo
- Reported conditions: Preemergence, 125 g ai/ha; scale 0 to 100, 0 no effect, 100 complete control

Examples with their reported Plant response rating, Lambsquarters follow.
Molecule	Recorded result
Cc1ccc(Cl)cc1-n1c(-c2ccccc2)ncc(C(=O)C2=C(O)CCCC2=O)c1=O [Compound 52]	100
COCCCn1c(-c2cc(F)cc(F)c2)ncc(C(=O)C2=C(O)C3CCC(C3)C2=O)c1=O (centres unmarked) [Compound 244]	100
CCCc1ncc(C(=O)C2=C(O)CCCC2=O)c(=O)n1-c1ccccc1 [Compound 217]	100
CCCCc1ncc(C(=O)C2=C(O)CCCC2=O)c(=O)n1-c1ccccc1C [Compound 62]	100

## Task Record request: Plant response rating, Lambsquarters value, item CCCc1ncc(C(=O)C2=C(O)CCCC2=O)c(=O)n1CCC [Compound 72]
## Result 98

* * *

- Test system: chickweed (Stellaria media)
- Method: Test B postemergence plant response
- Type: in vivo
- Reported conditions: Postemergence, 250 g ai/ha; scale 0 to 100 (0 no effect, 100 complete control); 13 to 15 days
Measured endpoint: Plant response rating, Chickweed
Form field (numeric): enter value without unit.

Compound	Plant response rating, Chickweed
CCCCn1c(-c2ccccc2)ncc(C(=O)C2=C(O)C3CCC(C3)C2=O)c1=O (stereo not drawn)	100
O=C1CCCC(O)=C1C(=O)c1cnc(-c2ccccc2)n(C2CCOCC2)c1=O	100

Next, consider the following compound.
## Task Record request: Plant response rating, Chickweed value, item `Cc1ccc(-n2c(-c3cc(F)cc(F)c3)ncc(C(=O)C3=C(O)CCCC3=O)c2=O)cc1`
## Result 100

* * *

- Tested on: corn (Zea mays)
- Method: Test B pre-/postemergence plant response
- Type: in vivo
- Reported conditions: Postemergence, 125 g ai/ha; visual rating after 13 to 15 days, scale 0 (no effect) to 100 (complete control)
Reported Plant response rating, Corn values for the following compounds.
Form field (numeric): enter value without unit.

Examples with their reported Plant response rating, Corn follow.
Smiles text	Recorded result
CCCn1c(-c2ccccc2)ncc(C(=O)C2=C(O)CCCC2=O)c1=O	25
CCCCCCn1c(-c2ccccc2)ncc(C(=O)C2=C(O)CCCC2=O)c1=O	70
CCCCc1ncc(C(=O)C2=C(O)CCCC2=O)c(=O)n1-c1ccccc1C	75

Next, consider the following compound.
## Task Please tell me: Plant response rating, Corn of `CCCc1ncc(C(=O)C2=C(O)CCCC2=O)c(=O)n1-c1cccc(C)c1` , system corn (Zea mays)?
## Result 60

* * *

- Test system: winter barley (Hordeum vulgare)
- Method: Test B postemergence plant response
- Format: in vivo
- Reported conditions: 62 g ai/ha, postemergence; 0 is no effect, 100 is complete control; 13 to 15 days
Reported Barley plant response rating (0 to 100 scale) values for the following compounds.
Form field (numeric): enter value without unit.

Examples with their reported Barley plant response rating (0 to 100 scale) follow.
Compound	Recorded result
O=C1CCCC(O)=C1C(=O)c1cnc(-c2ccccc2)n(C2CC[S+]([O-])CC2)c1=O (mixture of isomers)	0
CCCn1c(-c2cc(Cl)cc(Cl)c2)ncc(C(=O)C2=C(O)CCCC2=O)c1=O	20
O=C1CCCC(O)=C1C(=O)c1cnc(-c2ccccc2)n(C2CCOCC2)c1=O	0
O=C1CCCC(O)=C1C(=O)c1cnc(-c2ccsc2)n(C2CCOCC2)c1=O	5

## Task Record request: Barley plant response rating (0 to 100 scale) value, item `COCCCn1c(-c2cccc(F)c2)ncc(C(=O)C2=C(O)CCCC2=O)c1=O`
## Result 5

## Task Item: `O=C1CCCC(O)=C1C(=O)c1cnc(-c2ccc(Br)cc2)n(-c2ccccc2)c1=O`
## Result 30

## Task Item: O=C1CCCC(O)=C1C(=O)c1cnc(-c2cccs2)n(CC2CCCO2)c1=O (stereo not shown)
## Result 0

## Task Item: `COCCn1c(-c2cccs2)ncc(C(=O)C2=C(O)CCCC2=O)c1=O`
## Result 0

## Task Item: `CCCc1ncc(C(=O)C2=C(O)CCCC2=O)c(=O)n1CCC`
## Result 0

## Task Item: `CCn1c(-c2cc(F)cc(F)c2)ncc(C(=O)C2=C(O)CCCC2=O)c1=O`
## Result 10

## Task Item: `O=C1CCCC(O)=C1C(=O)c1cnc(-c2cccc(Br)c2)n(-c2ccccc2)c1=O`
## Result 5

## Task Item: `CCCCn1c(CCC)ncc(C(=O)C2=C(O)CCCC2=O)c1=O`
## Result 0

## Task Item: `CCOCCn1c(-c2ccccc2)ncc(C(=O)C2=C(O)CCCC2=O)c1=O`
## Result 0

* * *

- System: johnsongrass (Sorghum halepense)
- Method: Test B pre-/postemergence plant response
- Format: in vivo
- Reported conditions: 31 g ai/ha, postemergence; scale 0 to 100, 0 is no effect, 100 is complete control
Friendly reminder: Plant response rating, Johnsongrass below 10 is Criterion met, at or above is Criterion not met.

Compound	Class name
CCn1c(-c2ccccc2)ncc(C(=O)C2=C(O)CCCC2=O)c1=O [Compound 49]	Criterion met

## Task Report whether reported Plant response rating, Johnsongrass is lower than 10 (strictly) for O=C1CCCC(O)=C1C(=O)c1cnc(-c2ccsc2)n(C2CCCCC2)c1=O [Compound 99]
## Result Criterion not met

## Task Item: O=C1CCCC(O)=C1C(=O)c1cnc(C2CCCC2)n(-c2ccccc2)c1=O [Compound 92]
## Result Criterion not met

## Task Item: COCCOCCn1c(-c2ccccc2)ncc(C(=O)C2=C(O)CCCC2=O)c1=O [Compound 91]
## Result Criterion not met

## Task Item: Cc1cccc(-n2c(-c3ccccc3)ncc(C(=O)C3=C(O)CCCC3=O)c2=O)c1F [Compound 58]
## Result Criterion not met

* * *

- Test system: bluegrass (annual bluegrass, Poa annua)
- Method: Test D pre-/postemergence plant response
- Type: in vivo
- Reported conditions: Preemergence, 125 g ai/ha; scale 0 to 100
Reported Plant response rating, Bluegrass values for the following molecules.

Examples with their reported Plant response rating, Bluegrass follow.
Smiles text	Measured endpoint	Recorded result
O=C1CCCC(O)=C1C(=O)c1cnc(C2CC2)n(-c2ccccc2)c1=O	Plant response rating, Bluegrass	35
O=C1CCCC(O)=C1C(=O)c1cnc(-c2ccccc2)n(C2CCCCC2)c1=O	Plant response rating, Bluegrass	25
Cc1ccc(F)c(-n2c(-c3ccccc3)ncc(C(=O)C3=C(O)CCCC3=O)c2=O)c1	Plant response rating, Bluegrass	0

## Task Record request: Plant response rating, Bluegrass value, item `O=C1CCCC(O)=C1C(=O)c1cnc(-c2cccnc2)n(-c2ccccc2)c1=O`
## Result 0

## Task Item: `O=C1CCCC(O)=C1C(=O)c1cnc(-c2cccs2)n(-c2ccccc2)c1=O`
## Result 0

## Task Item: `Cc1ccc(Cl)cc1-n1c(-c2ccccc2)ncc(C(=O)C2=C(O)CCCC2=O)c1=O`
## Result 20
